Cited source: patent US20160297884A1

- system name: T1, cynomolgus monkey BCMA (cynomolgus monkey, UniProt A0A2K5UD97 1-53)
- T1 construct: Soluble analyte in SPR; construct not described; also called cyBCMA; Cyno BCMA
- T1 sequence (A0A2K5UD97 entry or part of it): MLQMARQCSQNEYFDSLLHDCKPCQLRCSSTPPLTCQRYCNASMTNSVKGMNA
- method description: SPR, IgG immobilised, 25 C
observed property: kon (M⁻¹ s⁻¹)
Write the number in M⁻¹ s⁻¹ without appending the unit.

Endpoint output: kon of L3.NY/P6E01 (antibody, V domains shown, IgG) VH: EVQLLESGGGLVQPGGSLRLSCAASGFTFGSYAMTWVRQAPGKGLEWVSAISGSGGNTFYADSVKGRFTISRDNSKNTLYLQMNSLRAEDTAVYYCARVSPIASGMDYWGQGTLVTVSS VL: EIVLTQSPGTLSLSPGERATLSCRASQSVSSSYLAWYQQKPGQAPRLLIYGASSRATGIPDRFSGSGSGTDFTLTISRLEPEDFAVYYCQHYNYPPSFTFGQGTKVEIK . Value?
1.01e+06

// below: kon requested for another binder
Endpoint output: kon of L1.LGF/L3.NY/H3.AQ (antibody, V domains shown, IgG) VH: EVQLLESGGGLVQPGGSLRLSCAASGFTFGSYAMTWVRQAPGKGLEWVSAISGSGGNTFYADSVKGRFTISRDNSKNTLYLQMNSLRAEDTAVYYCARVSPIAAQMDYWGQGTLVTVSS VL: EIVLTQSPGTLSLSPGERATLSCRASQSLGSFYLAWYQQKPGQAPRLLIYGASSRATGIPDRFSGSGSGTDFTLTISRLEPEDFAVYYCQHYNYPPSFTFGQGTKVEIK . Value?
751000
